target: Anti-Müllerian hormone Receptor 2 (AMH-R2), protein target applied to the peptide microarray (UniProt Q16671); experiment: peptide microarray; protein target detected by anti-GST and Alexa Fluor 647 antibody, scanned signal
Non-standard residues stand in square brackets, D forms with d. No end group written: not given here.
Observed property: Rep 1

{"Binder": "G[dL]Y[dW]SAYNP[dW][dR]HV[dA][dL][dA]S [AMH receptor binding peptide SEQ ID NO: 18]", "Observed property": "Rep 1", "Reported result": 60800}
{"Binder": "NG[dR]SQAHN[dL][dR][dK][dA]GV[dA][dL]S [AMH receptor binding peptide SEQ ID NO: 15]", "Observed property": "Rep 1", "Reported result": 62900}
{"Binder": "[dK]GSNA[dR][dK]N[dR][dR]D[dA]SGV[dA][dL] [AMH receptor binding peptide SEQ ID NO: 20]", "Observed property": "Rep 1", "Reported result": 52300}
{"Binder": "Y[dW]G[dW]SHA[dK][dA]NQFPN[dR][dL][dA] [AMH receptor binding peptide SEQ ID NO: 3]", "Observed property": "Rep 1", "Reported result": 65500}
{"Binder": "GG[dR]SVSAN[dL]Q[dR]E[dR][dK]V[dA]G [AMH receptor binding peptide SEQ ID NO: 19]", "Observed property": "Rep 1", "Reported result": 55700}
{"Binder": "EG[dL]QSSAYNNY[dW][dR][dK][dL]V[dA] [AMH receptor binding peptide SEQ ID NO: 17]", "Observed property": "Rep 1", "Reported result": 60200}
{"Binder": "DG[dL]GSV[dL]A[dR][dK]N[dR][dR]D[dA]V[dL] [AMH receptor binding peptide SEQ ID NO: 5]", "Observed property": "Rep 1", "Reported result": 65400}
{"Binder": "[dR][dW]G[dA]SN[dK]HFAN[dA]NQ[dR][dA][dL] [NegAMHR2BP (SEQ ID NO: 4)]", "Observed property": "Rep 1", "Reported result": 65500}
{"Binder": "G[dL]Q[dW]SFANGQ[dW][dR]G[dA][dL]SG [AMH receptor binding peptide SEQ ID NO: 12]", "Observed property": "Rep 1", "Reported result": 64600}
